# EXPERIMENTAL SYSTEM: recombinant human Dopamine Subtype D2s receptors (Homo sapiens)
# Construct: purchased Perkin Elmer
# MEASUREMENT NOTES: Dopamine D2 selectivity binding assay ([3H]-spiperone)
# CONDITION NOTES: inhibition of [3H]-spiperone (0.16 nM) binding
Counter-ions that a name gives are not always drawn.
EXPERIMENTAL ENDPOINT: D2 bind pIC50
The reply should be a number, written without any unit.

Some compounds with recorded D2 bind pIC50:
May I ask what D2 bind pIC50 has been recorded for O=C(CCNCCc1cccc(F)c1)N(CCNCCc1ccc(O)c2[nH]c(=O)sc12)C1CCCCC1 [Example 15, bis-trifluoroacetic acid salt] ?
6.4

// returns reported D2 bind pIC50 for input O=C(CCNCCc1cc(F)cc(F)c1)N(CCNCCc1ccc(O)c2[nH]c(=O)sc12)C1CCCCC1 [Example 92, dihydrobromide salt]
6.5

GET /values?readout=D2 bind pIC50&item= O=C(CCNCCc1cccc(F)c1F)N(CCNCCc1ccc(O)c2[nH]c(=O)sc12)C1CCCCC1 [Example 93, dihydrobromide salt]
6.5

Form field: reported D2 bind pIC50 of O=C(CCNCCc1cccc(F)c1)N(CCNCCc1ccc(O)c2[nH]c(=O)sc12)C1CCCCCC1 [Example 95]
6.7

***
Given the compound O=C(CCNCCc1ccc(Cl)c(Cl)c1)N(CCNCCc1ccc(O)c2[nH]c(=O)sc12)C1CCOCC1 [Example 94, dihydrobromide salt] , what is its reported D2 bind pIC50?
6.1

---

# EXPERIMENTAL SYSTEM: recombinant human Dopamine Subtype D2s receptors (Homo sapiens, UniProt P14416)
# Construct: purchased Perkin Elmer
# Sequence (P14416 1-414 isoform P14416-2): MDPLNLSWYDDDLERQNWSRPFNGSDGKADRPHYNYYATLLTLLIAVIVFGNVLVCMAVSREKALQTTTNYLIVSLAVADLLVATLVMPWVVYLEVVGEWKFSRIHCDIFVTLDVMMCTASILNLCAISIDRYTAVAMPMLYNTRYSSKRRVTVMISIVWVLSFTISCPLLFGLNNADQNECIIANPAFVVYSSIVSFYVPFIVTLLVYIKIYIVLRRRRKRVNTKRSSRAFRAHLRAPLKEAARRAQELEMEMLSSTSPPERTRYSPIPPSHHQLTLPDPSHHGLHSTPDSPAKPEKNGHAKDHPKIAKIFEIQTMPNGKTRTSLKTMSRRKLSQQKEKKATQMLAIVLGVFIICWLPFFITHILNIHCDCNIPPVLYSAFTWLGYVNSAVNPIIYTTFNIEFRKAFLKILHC
# MEASUREMENT NOTES: Dopamine D2 selectivity binding assay ([3H]-spiperone)
# CONDITION NOTES: inhibition of [3H]-spiperone (0.16 nM) binding; read-out: D2 bind pIC50 (converted)
Where a name gives a salt, the structure may show the parent alone.
Cut-off 200 nM on IC50: below means label 1, at or above means label 0.

Examples with answers:
For this compound, is IC50 lower than 200 nM? CC(CN(C(=O)CCNCCc1cccc(F)c1)C1CCCCCC1)NCCc1ccc(O)c2[nH]c(=O)sc12 (stereo not drawn) [Example 104, bis-trifluoroacetic acid salt]
label 1

Strictly below 200 nM in IC50? O=C(CCNCCc1cc(F)ccc1F)N(CCNCCc1ccc(O)c2[nH]c(=O)sc12)C1CCCCCC1 [Example 83, bis-trifluoroacetic acid salt]
label 1

Quick check: does CC(C)(Cc1ccccc1)NCCC(=O)N(CCNCCc1ccc(O)c2[nH]c(=O)sc12)C1CCCCC1 [Example 19, bis-trifluoroacetic acid salt] have IC50 under 200 nM?
label 0

Problem: For the compound O=C(CCNCCc1cccc(Cl)c1)N(CCNCCc1ccc(O)c2[nH]c(=O)sc12)C1CCCC1 [Example 30, bis-trifluoroacetic acid salt] , is IC50 under 200 nM?
label 0

***
Determine if O=C(CCNCCc1ccccc1Cl)N(CCNCCc1ccc(O)c2[nH]c(=O)sc12)C1CCCC1 [Example 29, bis-trifluoroacetic acid salt] shows IC50 strictly lower than 200 nM.
label 0

---

# EXPERIMENTAL SYSTEM: Adrenergic β2 (Homo sapiens, UniProt P07550)
# Construct: Adherent H292 cells were removed from tissue culture flasks; endogenous in cells; host or cells: H292 cells
# Sequence (P07550 whole entry): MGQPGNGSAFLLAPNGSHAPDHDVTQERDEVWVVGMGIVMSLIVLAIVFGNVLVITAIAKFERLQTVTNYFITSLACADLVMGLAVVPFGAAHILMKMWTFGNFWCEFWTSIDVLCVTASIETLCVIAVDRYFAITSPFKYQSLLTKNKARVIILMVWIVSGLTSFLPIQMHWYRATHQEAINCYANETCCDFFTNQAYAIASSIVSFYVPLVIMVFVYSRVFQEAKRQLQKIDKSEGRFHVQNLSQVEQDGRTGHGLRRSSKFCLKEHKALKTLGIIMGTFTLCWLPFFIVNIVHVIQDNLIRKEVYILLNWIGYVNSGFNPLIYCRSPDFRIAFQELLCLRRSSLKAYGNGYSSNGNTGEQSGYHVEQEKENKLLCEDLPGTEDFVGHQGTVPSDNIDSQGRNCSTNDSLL
# MEASUREMENT NOTES: Adrenergic β2 mediated cAMP production in H292 cells
# Assay type: cell-based
# CONDITION NOTES: H292 cells, cAMP by AlphaScreen, 60 minutes at room temperature, rolipram 300 μM; read-out: β2 pEC50 (converted)
Counter-ions that a name gives are not always drawn.
The reader will find reported EC50 values listed item by item below.
Answer by giving the amount and then stating its unit.

Recall the recorded EC50 for O=C(CCNCCc1cccs1)N(CCNCCc1ccc(O)c2[nH]c(=O)sc12)C1CCCCCC1 [Example 52, bis-trifluoroacetic acid salt] with Adrenergic β2 (Homo sapiens, UniProt P07550) and state it.
3.16 nM

Find the measured EC50: item CC1(C)CCC(N(CCNCCc2ccc(O)c3[nH]c(=O)sc23)C(=O)CCNCCc2cccc(O)c2)CC1 [Example 91, bis-trifluoroacetic acid salt] , target or system Adrenergic β2 (Homo sapiens, UniProt P07550).
3.98 nM

Request body: readout EC50, system Adrenergic β2 (Homo sapiens, UniProt P07550), query C[C@@H](CNCCC(=O)N(CCNCCc1ccc(O)c2[nH]c(=O)sc12)C1CCCCC1)c1ccccc1 [Example 20, bis-trifluoroacetic acid salt] . Return the value.
10 nM
